B1: ZC3H15 (parent)
chain: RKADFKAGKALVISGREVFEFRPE

Variants of: B1
experiment_notes: protein stability index of a GFP-peptide fusion (GPS, HEK-293T) (PSI 1-6); higher = more stable;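 also: lentivirally expressed fusions sorted by FACS into six bins by GFP to DsRed ratio, PSI derived from sequencing read proportions per bin multiplied by bin number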
experimental_conditions: c terminus: a fixed tail appended
Measured protein stability index, listed per entry.
outcome_measure: protein stability index

monomer_sequence	outcome_measure	meas_value
RKADQKAGKALVISGREVFEFRPE [F5Q]	protein stability index	3.8
RKADFKAGKALVISGREVFEYRPE [F21Y]	protein stability index	3.21
HKADFKAGKALVISGREVFEFRPE [R1H]	protein stability index	3.44
RKADFKNGKALVISGREVFEFRPE [A7N]	protein stability index	3.11
RKADFKAGKALVISGREVFENRPE [F21N]	protein stability index	3.73
RKADFKAGYALVISGREVFEFRPE [K9Y]	protein stability index	1.05
RPADFKAGKALVISGREVFEFRPE [K2P]	protein stability index	2.75
RKADFKIGKALVISGREVFEFRPE [A7I]	protein stability index	2.66
RKADFKAGKALVISGREVFELRPE [F21L]	protein stability index	2.82
RAADFKAGKALVISGREVFEFRPE [K2A]	protein stability index	3.43
RKADFKAGKALVISGREVEEFRPE [F19E]	protein stability index	4.23
RKADFKAQKALVISGREVFEFRPE [G8Q]	protein stability index	2.85
RKADFKAGKALVISGREVHEFRPE [F19H]	protein stability index	4.13
RKAFFKAGKALVISGREVFEFRPE [D4F]	protein stability index	1.98
RKADFKAGKALVISGWEVFEFRPE [R16W]	protein stability index	1.92
RKADFKAGKALVISGREVFEFRPS [E24S]	protein stability index	2.78
RKADFKAGKALVISGTEVFEFRPE [R16T]	protein stability index	2.99
RKADFKAGKALVINGREVFEFRPE [S14N]	protein stability index	2.66
GKADFKAGKALVISGREVFEFRPE [R1G]	protein stability index	2.95
RKKDFKAGKALVISGREVFEFRPE [A3K]	protein stability index	3.12
RKADFKAGKALVASGREVFEFRPE [I13A]	protein stability index	3.86
RKADFKAGKALVISGREVFQFRPE [E20Q]	protein stability index	2.74
RKADFKAGKALVISGREVDEFRPE [F19D]	protein stability index	4.68
RKADFKAGKALVIRGREVFEFRPE [S14R]	protein stability index	2.56
RKADFKAGKALVISGRWVFEFRPE [E17W]	protein stability index	2.12
RKADFKAGKALVISGIEVFEFRPE [R16I]	protein stability index	1.92
RKQDFKAGKALVISGREVFEFRPE [A3Q]	protein stability index	3.06
RKALFKAGKALVISGREVFEFRPE [D4L]	protein stability index	1.91
RKADFKAGKALVISGREVFPFRPE [E20P]	protein stability index	2.62
RKADFKAGKALVCSGREVFEFRPE [I13C]	protein stability index	3.2
RKADFKAGKMLVISGREVFEFRPE [A10M]	protein stability index	2.09
RKADFKAGKALVISGRCVFEFRPE [E17C]	protein stability index	1.71
RKADFKAGKALVISGREAFEFRPE [V18A]	protein stability index	3.33
RKADFKAGKALVISGRQVFEFRPE [E17Q]	protein stability index	1.96
RKADFKAGKALVISGDEVFEFRPE [R16D]	protein stability index	3.69
RKHDFKAGKALVISGREVFEFRPE [A3H]	protein stability index	2.44
RKADFKAGKAWVISGREVFEFRPE [L11W]	protein stability index	2.55
RKADFKEGKALVISGREVFEFRPE [A7E]	protein stability index	2.86
RKADFKAGKALVISGREVFEQRPE [F21Q]	protein stability index	4.23
RKADFKAGKALVDSGREVFEFRPE [I13D]	protein stability index	4.17
RKADFKAGKALVISGREVFEWRPE [F21W]	protein stability index	2.85
RKADFKAGKALVLSGREVFEFRPE [I13L]	protein stability index	3.55
RKADFKAGKALVISSREVFEFRPE [G15S]	protein stability index	3.18
RKAKFKAGKALVISGREVFEFRPE [D4K]	protein stability index	2.53
RKCDFKAGKALVISGREVFEFRPE [A3C]	protein stability index	2.09
RKADFKAGLALVISGREVFEFRPE [K9L]	protein stability index	1.99
RVADFKAGKALVISGREVFEFRPE [K2V]	protein stability index	2.49
RKADFKAGKALVIFGREVFEFRPE [S14F]	protein stability index	1.23
RKADFKAGKALVISGRGVFEFRPE [E17G]	protein stability index	2.3
RKAPFKAGKALVISGREVFEFRPE [D4P]	protein stability index	2.36
RKADGKAGKALVISGREVFEFRPE [F5G]	protein stability index	4.05
RKADFKAGKALVISAREVFEFRPE [G15A]	protein stability index	2.64
RKADFKAGKVLVISGREVFEFRPE [A10V]	protein stability index	2.49
RKADFKAGKALVISGRAVFEFRPE [E17A]	protein stability index	1.47
RKADFKAGKALVISGSEVFEFRPE [R16S]	protein stability index	3.21
RKADFKAGKALVIMGREVFEFRPE [S14M]	protein stability index	2.49
RKMDFKAGKALVISGREVFEFRPE [A3M]	protein stability index	2.75
RKADFKAGKALVIWGREVFEFRPE [S14W]	protein stability index	1.87
RKADFQAGKALVISGREVFEFRPE [K6Q]	protein stability index	2.44
RKADFKMGKALVISGREVFEFRPE [A7M]	protein stability index	2.46
RKADFKAGKALVFSGREVFEFRPE [I13F]	protein stability index	2.32
WKADFKAGKALVISGREVFEFRPE [R1W]	protein stability index	2.53
RKADFKAGKALVISGREVFEFAPE [R22A]	protein stability index	3
RKADFKAGKADVISGREVFEFRPE [L11D]	protein stability index	3.69
RKADFRAGKALVISGREVFEFRPE [K6R]	protein stability index	2.29
RKADFKAGKALVISGREVFYFRPE [E20Y]	protein stability index	1.66
RKADFKAGKALVISGREVFEFQPE [R22Q]	protein stability index	3.83
RKADFKAGKALVISGREVFVFRPE [E20V]	protein stability index	2.34
RKADFKARKALVISGREVFEFRPE [G8R]	protein stability index	2.52
RKADFKAGKALVISGREVFEARPE [F21A]	protein stability index	3.05
RKADFKAGKALLISGREVFEFRPE [V12L]	protein stability index	2.42
RKACFKAGKALVISGREVFEFRPE [D4C]	protein stability index	1.79
RKADFKAGKALVISGREVFEFRIE [P23I]	protein stability index	1.35
RKADFKAGKAIVISGREVFEFRPE [L11I]	protein stability index	2.72
RKADFKAGPALVISGREVFEFRPE [K9P]	protein stability index	2.78
RKADTKAGKALVISGREVFEFRPE [F5T]	protein stability index	3.59
RKADFKACKALVISGREVFEFRPE [G8C]	protein stability index	2.14
RKADFLAGKALVISGREVFEFRPE [K6L]	protein stability index	2.29
RKADFKAGKALVISGREHFEFRPE [V18H]	protein stability index	3.22
RKADFKAGKALVISGREVFEFRDE [P23D]	protein stability index	3.82
RKADFGAGKALVISGREVFEFRPE [K6G]	protein stability index	2.4
RKADFKAGKALVISGREDFEFRPE [V18D]	protein stability index	3.69
RKFDFKAGKALVISGREVFEFRPE [A3F]	protein stability index	2.23
RIADFKAGKALVISGREVFEFRPE [K2I]	protein stability index	1.92
RKADFKAGRALVISGREVFEFRPE [K9R]	protein stability index	2.31
RKADFKAGKALFISGREVFEFRPE [V12F]	protein stability index	2.39
RKADFKAGKALVISRREVFEFRPE [G15R]	protein stability index	2.73
RFADFKAGKALVISGREVFEFRPE [K2F]	protein stability index	2.06
RKAIFKAGKALVISGREVFEFRPE [D4I]	protein stability index	2.27
RKADFKAGKALVISGREVFEFWPE [R22W]	protein stability index	2.39
RKADFKAGKALVISNREVFEFRPE [G15N]	protein stability index	3.4

The reported numbers originate from the supplement of paper PMC10567573.
